# Test system: enzyme decomposing R--Val--Val--X--Ala--X to Val--X--Ala--X
# Run description: Effect of various inhibitors and metal ions on enzyme activity
# Format: biochemical, Bacillus sphaericus ATCC 14577
# Experimental parameters: Concentration 2 mM; control 100
Observed property: Relative activity
// return a plain number; no unit text

Query: Would you kindly share the measured Relative activity for c1cnc2c(c1)ccc1cccnc12 ?
Result: 0

Query: Would you kindly share the measured Relative activity for OCCS ?
Result: 0

Query: Would you kindly share the measured Relative activity for [Cl-].[Cl-].[Zn+2] [Zinc Chloride] ?
Result: 66

Query: Would you kindly share the measured Relative activity for O=C(O)c1cc[c]([Hg][Cl])cc1 [p-Chloromercuribenzoate] ?
Result: 2

Query: Would you kindly share the measured Relative activity for O=C1CCC(=O)N1Br [N-Bromosuccinimide] ?
Result: 0

Query: Would you kindly share the measured Relative activity for O=C(O)CN(CCN(CC(=O)O)CC(=O)O)CC(=O)O ?
Result: 30

Query: Would you kindly share the measured Relative activity for [Ca+2].[Cl-].[Cl-] [Calcium Choride] ?
Result: 110

Query: Would you kindly share the measured Relative activity for O[C@H](CS)[C@H](O)CS (racemic) ?
Result: 0
